Data provenance: PubChem BioAssay AID284

System: BDF1 mice, L1210/MTX-resistant leukemia ip, survival T/C
Assay: NCI In Vivo Anticancer Drug Screen. Data for tumor model L1210 Leukemia resistant to Methotrexate; NSC 740 (intraperitoneal) in B6D2F1 (BDF1) mice
Conditions: endpoint: mean survival time; dose: 2.0 mg/kg/injection; schedule: Q01DX Z (ip); vehicle: carboxymethylcellulose (CMC); higher = longer survival
Inconclusive results and toxic doses are left out.
READOUT KIND: T/C

Some molecules with known T/C results, for comparison:
{"columns": ["MOLECULE", "TEST TARGET", "T/C"],
 "data": [
  ["CC1(C)N=C(N)N=C(N)N1c1cccc(Br)c1", "BDF1 mice, L1210/MTX-resistant leukemia ip, survival T/C", "97 % of control"],
  ["N[C@@H](Cc1ccc(N(CCCl)CCCl)cc1)C(=O)O", "BDF1 mice, L1210/MTX-resistant leukemia ip, survival T/C", "110 % of control"],
  ["O=C(O)CCCc1ccc(N(CCCl)CCCl)cc1", "BDF1 mice, L1210/MTX-resistant leukemia ip, survival T/C", "97 % of control"],
  ["S=P(N1CCOCC1)(N1CC1)N1CC1", "BDF1 mice, L1210/MTX-resistant leukemia ip, survival T/C", "92 % of control"],
  ["CC(=O)Nc1ccc2nc3ccc(NC(C)=O)cc3[n+](-c3ccccc3)c2c1", "BDF1 mice, L1210/MTX-resistant leukemia ip, survival T/C", "107 % of control"]
]}

Give me measured T/C, please, for this molecule: `Oc1cc(CN(CCCl)CCCl)c(O)cc1CN(CCCl)CCCl`
88 % of control

Give me measured T/C, please, for this molecule: NC(Cc1ccc(N(CCCl)CCCl)cc1)C(=O)O (configuration not stated)
102 % of control

====

Tested on: BDF1 mice, L1210/MTX-resistant leukemia ip, survival T/C
Assay: NCI In Vivo Anticancer Drug Screen. Data for tumor model L1210 Leukemia resistant to Methotrexate; NSC 740 (intraperitoneal) in B6D2F1 (BDF1) mice
Settings: endpoint: mean survival time; dose: 50.0 mg/kg/injection; schedule: Q01DX010 (ip); vehicle: saline; higher = longer survival
Toxic doses and inconclusive results are not listed.
Collected T/C values appear next to each entry.

Some compounds with known T/C results, for comparison:
{"columns": ["INPUT SMILES", "T/C"],
 "data": [
  ["O=C1C(NC(=O)C2CCCCC2)=C(N2CC2)C(=O)C(NC(=O)C2CCCCC2)=C1N1CC1", "108 % of control"],
  ["CN(C)/N=N/c1nc[nH]c1C(N)=O", "119 % of control"]
]}

Give me measured T/C, please, for this compound: `CCN(CC)CCNc1ccc(C)c2sc3ccccc3c(=O)c12`
124 % of control

Give me measured T/C, please, for this compound: `CS(=O)(=O)OCCCCOS(C)(=O)=O`
102 % of control

====

Collected T/C values appear next to each entry.
System: BDF1 mice, L1210/MTX-resistant leukemia ip, survival T/C
Assay: NCI In Vivo Anticancer Drug Screen. Data for tumor model L1210 Leukemia resistant to Methotrexate; NSC 740 (intraperitoneal) in B6D2F1 (BDF1) mice
Conditions: endpoint: mean survival time; dose: 12.5 mg/kg/injection; schedule: Q01DX Z (ip); vehicle: carboxymethylcellulose (CMC); higher = longer survival
Inconclusive results and toxic doses are left out.

{"columns": ["MOLECULE", "T/C"],
 "data": [
  ["CC1(C)N=C(N)N=C(N)N1c1cccc(Br)c1", "98 % of control"],
  ["Nc1nc(SCc2ccccc2)c2[nH]cnc2n1", "114 % of control"],
  ["CC(CCC(C)OS(C)(=O)=O)OS(C)(=O)=O (stereo unspecified)", "98 % of control"],
  ["Cn1c(N)nc2nc[nH]c2c1=S", "90 % of control"],
  ["CS(=O)(=O)OCCCCOS(C)(=O)=O", "106 % of control"]
]}

Next molecule, T/C to be filled in.
Give me measured T/C, please, for this molecule: `O=C(O)CCCc1ccc(N(CCCl)CCCl)cc1`
95 % of control

====

Tested on: BDF1 mice, L1210/MTX-resistant leukemia ip, survival T/C
Assay: NCI In Vivo Anticancer Drug Screen. Data for tumor model L1210 Leukemia resistant to Methotrexate; NSC 740 (intraperitoneal) in B6D2F1 (BDF1) mice
Conditions: endpoint: mean survival time; dose: 12.5 mg/kg/injection; schedule: Q01DX010 (ip); vehicle: saline; higher = longer survival
Inconclusive results and toxic doses are left out.
Collected T/C values appear next to each entry.

{"columns": ["MOLECULE", "T/C"],
 "data": [
  ["CC/C(=C(/CC)c1ccc(O)cc1)c1ccc(O)cc1", "94 % of control"]
]}

Next molecule, T/C to be filled in.
Give me measured T/C, please, for this molecule: CSc1ncnc2c1ncn2C1OC(CO)C(O)C1O (stereo unspecified)
109 % of control

====

Collected T/C values appear next to each entry.
Tested on: BDF1 mice, L1210/MTX-resistant leukemia ip, survival T/C
Assay: NCI In Vivo Anticancer Drug Screen. Data for tumor model L1210 Leukemia resistant to Methotrexate; NSC 740 (intraperitoneal) in B6D2F1 (BDF1) mice
Conditions: endpoint: mean survival time; dose: 5.0 mg/kg/injection; schedule: Q01DX Z (ip); vehicle: saline; higher = longer survival
Inconclusive results and toxic doses are left out.

Some molecules with known T/C results, for comparison:
{"columns": ["MOLECULE", "READOUT KIND", "TEST VALUE"],
 "data": [
  ["COS(C)(=O)=O", "T/C", "105 % of control"],
  ["O=CCC(O)C(O)C(O)CO (centres undefined)", "T/C", "118 % of control"],
  ["C=CC(CN1CC1)OC(C)=O (centres undefined)", "T/C", "102 % of control"]
]}

Consider the molecule `CN(C)c1ccc(/C=C/c2ccnc3ccccc23)cc1` tested on BDF1 mice, L1210/MTX-resistant leukemia ip, survival T/C; state its T/C.
101 % of control

====

Test system: BDF1 mice, L1210/MTX-resistant leukemia ip, survival T/C
Test: NCI In Vivo Anticancer Drug Screen. Data for tumor model L1210 Leukemia resistant to Methotrexate; NSC 740 (intraperitoneal) in B6D2F1 (BDF1) mice
Settings: endpoint: mean survival time; dose: 12.5 mg/kg/injection; schedule: Q01DX010 (ip); vehicle: saline; higher = longer survival
Inconclusive results and toxic doses are left out.
Collected T/C values appear next to each entry.

{"columns": ["MOLECULE", "TEST TARGET", "T/C"],
 "data": [
  ["CN(C)/N=N/c1nc[nH]c1C(N)=O", "BDF1 mice, L1210/MTX-resistant leukemia ip, survival T/C", "108 % of control"]
]}

Give me measured T/C, please, for this molecule: `O=NN(CCCl)C(=O)NCCCl`
113 % of control

Give me measured T/C, please, for this molecule: CN(N=O)C(=O)NC(C=O)C(O)C(O)C(O)CO (centres undefined)
100 % of control

Give me measured T/C, please, for this molecule: [I][Hg][CH2]C1COC([CH2][Hg][I])CO1 (centres undefined)
103 % of control
